# tested_target: ATP-dependent translocase ABCB1 (Homo sapiens)
# Sequence (P08183 whole entry): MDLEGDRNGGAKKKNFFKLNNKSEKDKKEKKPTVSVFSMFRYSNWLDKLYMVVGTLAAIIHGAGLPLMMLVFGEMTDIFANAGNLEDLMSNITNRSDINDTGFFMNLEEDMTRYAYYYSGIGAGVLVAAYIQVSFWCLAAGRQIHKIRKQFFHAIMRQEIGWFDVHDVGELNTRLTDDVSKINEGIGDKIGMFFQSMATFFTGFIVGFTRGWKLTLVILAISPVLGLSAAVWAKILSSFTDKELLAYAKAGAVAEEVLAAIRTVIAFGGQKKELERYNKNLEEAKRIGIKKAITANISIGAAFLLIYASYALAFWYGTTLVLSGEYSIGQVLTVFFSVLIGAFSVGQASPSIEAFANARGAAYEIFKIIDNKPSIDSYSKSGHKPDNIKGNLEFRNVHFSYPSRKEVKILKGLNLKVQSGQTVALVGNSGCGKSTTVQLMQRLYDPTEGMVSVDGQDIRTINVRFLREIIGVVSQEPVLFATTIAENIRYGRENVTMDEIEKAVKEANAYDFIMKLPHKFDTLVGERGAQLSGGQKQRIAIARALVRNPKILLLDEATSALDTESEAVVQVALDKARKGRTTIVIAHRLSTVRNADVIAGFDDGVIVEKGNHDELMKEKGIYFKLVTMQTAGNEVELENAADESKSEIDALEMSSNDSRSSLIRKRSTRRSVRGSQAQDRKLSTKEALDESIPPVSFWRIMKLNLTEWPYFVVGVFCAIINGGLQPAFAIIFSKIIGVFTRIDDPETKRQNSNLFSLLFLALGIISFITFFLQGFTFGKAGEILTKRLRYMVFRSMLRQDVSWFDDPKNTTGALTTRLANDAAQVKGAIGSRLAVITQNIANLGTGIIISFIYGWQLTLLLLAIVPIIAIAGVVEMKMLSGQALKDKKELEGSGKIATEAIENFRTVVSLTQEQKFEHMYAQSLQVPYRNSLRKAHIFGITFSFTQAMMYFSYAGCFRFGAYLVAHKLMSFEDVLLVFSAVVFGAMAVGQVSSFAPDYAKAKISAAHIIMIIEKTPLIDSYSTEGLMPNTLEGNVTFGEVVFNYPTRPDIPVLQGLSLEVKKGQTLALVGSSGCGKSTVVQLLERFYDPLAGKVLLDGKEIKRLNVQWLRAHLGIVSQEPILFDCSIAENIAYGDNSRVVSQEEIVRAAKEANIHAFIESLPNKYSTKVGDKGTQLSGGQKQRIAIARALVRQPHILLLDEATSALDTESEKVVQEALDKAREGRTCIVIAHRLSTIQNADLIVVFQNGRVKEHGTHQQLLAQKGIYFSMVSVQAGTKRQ
# method: Inhibition of p-glycoprotein in human K562/A02 cells assessed as accumulation of rhodamine 123 by flow cytometry
# Type: cell-based
quantity_name: inhibition (INH)

1) COc1cc2c(c3c1OCO3)-c1c(cc(OC)c3c1OCO3)CN(CCc1ccccc1)C2	Dose-dependent effect
2) COc1ccc(CCN(C)CCCC(C#N)(c2ccc(OC)c(OC)c2)C(C)C)cc1OC (centres undefined)	Dose-dependent effect
3) COc1cc2c(c3c1OCO3)-c1c(cc(OC)c3c1OCO3)CN(Cc1ccccc1)C2	Dose-dependent effect
4) COc1cc2c(c3c1OCO3)-c1c(cc(OC)c3c1OCO3)CN(CCc1ccc3c(c1)OCO3)C2	Dose-dependent effect

====

# method: Cytotoxicity against human K562/A02 cells expressing p-glycoprotein assessed as cell survival rate at 1.25 uM after 72 hrs by MTS assay
# Format: cell-based
# experimental_conditions: read-out: Activity
quantity_name: viability at 72 h, 1.25 µM (%)

1) COc1cc2c(c3c1OCO3)-c1c(cc(OC)c3c1OCO3)CN(CCc1ccc3c(c1)OCO3)C2	98

====

# method: Reversal of p-glycoprotein-mediated multidrug-resistant in human K562/A02 cells assessed as increase of adriamycin-induced cytotoxic effect at 2.5 uM treated for 24 hrs followed by adriamycin treated 24 hrs after drug washout by MTS assay
# Type: cell-based
# experimental_conditions: K562/A02, 24 h
quantity_name: IC50 (µM)

1) COc1cc2c(c3c1OCO3)-c1c(cc(OC)c3c1OCO3)CN(CCc1ccc3c(c1)OCO3)C2	10.3

====

# method: Reversal of p-glycoprotein-mediated multidrug-resistant in human K562/A02 cells assessed as increase of adriamycin-induced cytotoxic effect at 2.5 uM treated for 24 hrs followed by adriamycin treated 6 hrs after drug washout by MTS assay
# Format: cell-based
pIC50: −log10 of the molar value.
quantity_name: pIC50

1. COc1cc2c(c3c1OCO3)-c1c(cc(OC)c3c1OCO3)CN(CCc1ccc3c(c1)OCO3)C2	5.61

====

Parameter IC50: see the listing below.
# Tested on: K562
# method: Cytotoxicity against human K562 cells after 72 hrs by MTS assay
# Format: functional, cell-based
# experimental_conditions: K562, 72 h
quantity_name: IC50 (µM)

1) COc1cc2c(c3c1OCO3)-c1c(cc(OC)c3c1OCO3)C(=O)N(Cc1ccccc1)C2	43.5
2) COc1cc2c(c3c1OCO3)-c1c(cc(OC)c3c1OCO3)CN(CCc1ccccc1)C2	45.4
3) CCCCN1Cc2cc(OC)c3c(c2-c2c(cc(OC)c4c2OCO4)C1=O)OCO3	41.7
4) CCCCN1Cc2cc(OC)c3c(c2-c2c(cc(OC)c4c2OCO4)C1)OCO3	77.5
5) CCCN1Cc2cc(OC)c3c(c2-c2c(cc(OC)c4c2OCO4)C1)OCO3	106
6) COc1cc2c(c3c1OCO3)-c1c(cc(OC)c3c1OCO3)CN(C)C2	140

====

# method: Reversal of p-glycoprotein-mediated multidrug-resistant in human K562/A02 cells assessed as increase of adriamycin-induced cytotoxic effect at 10 uM treated for 24 hrs followed by adriamycin treated 24 hrs after drug washout by MTS assay
# experimental_conditions: K562/A02, 24 h
quantity_name: IC50 (µM)

1) COc1ccc(CCN(C)CCCC(C#N)(c2ccc(OC)c(OC)c2)C(C)C)cc1OC (stereo unspecified)	51.4

====

# Test system: K562
# method: Cytotoxicity against human K562 cells after 72 hrs by MTS assay
# Format: functional, cell-based
# experimental_conditions: K562, 72 h
quantity_name: IC50

1. CCN1Cc2cc(OC)c3c(c2-c2c(cc(OC)c4c2OCO4)C1=O)OCO3	> 100 µM
2. COc1cc2c(c3c1OCO3)-c1c(cc(OC)c3c1OCO3)CN(c1ccccc1)C2	> 100 µM
3. COc1cc2c(c3c1OCO3)-c1c(cc(OC)c3c1OCO3)CN(Cc1ccccc1)C2	> 200 µM
4. COC(=O)CN1Cc2cc(OC)c3c(c2-c2c(cc(OC)c4c2OCO4)C1)OCO3	> 100 µM

These measurements were taken from ChEMBL document CHEMBL2010685.
